- System: Escherichia coli
- METHOD_SUMMARY: Antimicrobial activity against Escherichia […] after 24 hrs by broth microdilution method
- Format: functional
MEASURED_PARAMETER: MIC (µg/mL)
Give the quantity in µg/mL, number only.

Item: CC(=O)N1N=C(c2nc(C(C)C)cs2)OC1c1cccc(Cl)c1Cl (stereo unspecified) | MIC: 125

The recorded MIC for entry CC(C)c1csc(C(=O)N/N=C/c2cccc(Cl)c2Cl)n1 equals 16

Lookup result for CC(=O)N1N=C(c2nc(C(C)C)cs2)OC1c1ccc([N+](=O)[O-])cc1 (stereo unspecified) ; measured MIC: 250

Measured MIC of C/C(=N/NC(=O)c1nc(C(C)C)cs1)c1ccccc1 : 125

# MIC of COc1cc(C2OC(c3nc(C(C)C)cs3)=NN2C(C)=O)cc(OC)c1OC (stereo unspecified) = 31.2

The reported MIC of the compound COc1cc(/C=N/NC(=O)c2nc(C(C)C)cs2)cc(OC)c1OC was 125

Documented MIC of CC(C)c1csc(C(=O)N/N=C/c2ccc(O)cc2)n1 : 31.2

Query CC(=O)NNC(=O)c1nc(C(C)C)cs1 yields MIC of 250

MIC in this record for CC(C)c1csc(C(=O)N/N=C/c2ccc([N+](=O)[O-])cc2)n1 : 31.2

compound C/C(=N/NC(=O)c1nc(C(C)C)cs1)c1ccc(O)cc1 , MIC observed: 125

----------
- Tested on: Escherichia coli
- METHOD_SUMMARY: Antimicrobial activity against Escherichia […] after 24 hrs by broth microdilution method
- Assay type: functional
Task for the reader: assign each of the following compounds its reported MIC.
Return type: number; implicit unit µg/mL.

Query C/C(=N/NC(=O)c1nc(C(C)C)cs1)c1ccc([N+](=O)[O-])cc1 on Escherichia coli; MIC returned: 250

Escherichia coli MIC of CC(=O)N1N=C(c2nc(C(C)C)cs2)OC1c1ccc(O)cc1 (stereo unspecified) is 16

Lab note: compound CC(C)=NNC(=O)c1nc(C(C)C)cs1 tested on Escherichia coli; recorded MIC was 125

Measured MIC for this entry CC(=O)N1N=C(c2nc(C(C)C)cs2)OC1c1ccc(N(C)C)cc1 (stereo unspecified) on Escherichia coli: 16

// MIC (Escherichia coli) for CC(C)c1csc(C(=O)NN)n1 = 125

----------
I'd be grateful if you could share measured MIC for these entries.
- Test system: Pseudomonas aeruginosa
- METHOD_SUMMARY: Antimicrobial activity against Pseudomonas aeruginosa ATCC 10145 after 24 hrs by broth microdilution method
- Assay type: functional
- RUN_PARAMETERS: ATCC 10145, 24 h
# value in µg/mL; strip the unit string

MIC reading for C/C(=N/NC(=O)c1nc(C(C)C)cs1)c1ccc(Br)cc1 : 125

For this compound ( C/C(=N/NC(=O)c1nc(C(C)C)cs1)c1ccc(Cl)cc1 ), measured MIC is 125

Data point: CC(=O)N1N=C(c2nc(C(C)C)cs2)OC1c1ccc([N+](=O)[O-])cc1 (stereo unspecified) ; MIC = 125

For reference, reported MIC for CC(C)c1csc(-c2nnc(S)n2N)n1 stands at 16

The compound listed as C/C(=N/NC(=O)c1nc(C(C)C)cs1)c1ccc(C)cc1 has a reported MIC of 250

// field: MIC; key: CC(=O)N1N=C(c2nc(C(C)C)cs2)OC1c1ccc(O)cc1 (stereo unspecified) ; value = 31.2

Quick note, MIC for CC(C)c1csc(C(=O)N/N=C/c2ccc(N(C)C)cc2)n1 landed at 31.2

Note to self: MIC recorded for CC(=O)N1N=C(c2nc(C(C)C)cs2)OC1c1ccccc1 (stereo unspecified) was 16

MIC reading for COc1cc(C2OC(c3nc(C(C)C)cs3)=NN2C(C)=O)cc(OC)c1OC (stereo unspecified) : 16

In plain terms, COc1cc(/C=N/NC(=O)c2nc(C(C)C)cs2)cc(OC)c1OC has a documented MIC of 31.2

Short answer for CC(C)c1csc(-c2nnc(S)o2)n1 : MIC was 31.2
